target: Recombinant Human NF-kappaB-inducing Kinase (NIK/MAP3K14) (Homo sapiens (Human), UniProt Q99558); test: Biological Assay A2: inhibition of auto-phosphorylation of recombinant human NIK/MAP3K14 (AlphaScreen); type: biochemical; conditions: 25 microM ATP, 0.2 nM GST-tagged NIK/MAP3K14, 1 h at 25° C., averaged values, read-out: Alpha-Screen IC50
Sequence (Q99558 whole entry): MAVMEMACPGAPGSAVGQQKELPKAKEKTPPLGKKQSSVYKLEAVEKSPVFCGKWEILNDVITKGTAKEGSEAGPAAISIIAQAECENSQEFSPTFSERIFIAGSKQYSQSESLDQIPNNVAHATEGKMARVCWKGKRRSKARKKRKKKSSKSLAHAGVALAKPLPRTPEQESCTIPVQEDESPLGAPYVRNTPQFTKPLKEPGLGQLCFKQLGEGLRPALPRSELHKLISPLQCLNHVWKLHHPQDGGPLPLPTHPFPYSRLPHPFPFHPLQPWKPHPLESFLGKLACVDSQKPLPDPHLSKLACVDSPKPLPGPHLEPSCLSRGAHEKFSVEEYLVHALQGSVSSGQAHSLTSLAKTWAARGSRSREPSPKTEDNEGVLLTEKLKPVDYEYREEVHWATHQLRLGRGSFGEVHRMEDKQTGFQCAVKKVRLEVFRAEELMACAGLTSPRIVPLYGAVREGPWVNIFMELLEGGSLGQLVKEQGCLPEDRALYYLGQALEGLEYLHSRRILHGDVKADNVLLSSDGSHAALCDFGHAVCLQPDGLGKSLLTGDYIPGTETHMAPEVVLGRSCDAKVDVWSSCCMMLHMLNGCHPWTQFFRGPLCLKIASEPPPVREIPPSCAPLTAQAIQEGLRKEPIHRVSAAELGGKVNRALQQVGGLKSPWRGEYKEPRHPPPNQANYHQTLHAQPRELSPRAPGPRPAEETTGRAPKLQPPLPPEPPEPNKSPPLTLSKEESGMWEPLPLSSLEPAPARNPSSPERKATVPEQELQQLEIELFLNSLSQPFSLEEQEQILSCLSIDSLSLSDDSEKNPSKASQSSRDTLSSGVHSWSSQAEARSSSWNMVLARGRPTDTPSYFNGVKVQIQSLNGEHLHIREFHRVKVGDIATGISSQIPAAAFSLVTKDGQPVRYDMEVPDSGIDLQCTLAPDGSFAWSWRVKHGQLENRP
Quantity: IC50 (nM)

Previously resolved entries follow.
Cn1cc(-c2cn[nH]c2)c2cc(C#CC(C)(C)O)ncc21 = 11
CC(C)(O)C#Cc1cc2c(-c3cn[nH]c3)cn(CCC(C)(C)O)c2cn1 = 30
CCn1cc(-c2c[nH]nc2Cl)c2cc(C#CC(C)(C)O)ncc21 = 13
CCn1cc(-c2cn[nH]c2)c2cc(C#CC3(O)CCCC3)ncc21 = 23
CC(C)(O)C#Cc1cc2c(-c3cn[nH]c3)c[nH]c2cn1 = 53

a. CC(C)Cn1cc(-c2cn[nH]c2)c2cc(C#CC(C)(C)O)ncc21
b. CCn1cc(-c2cn[nH]c2)c2cc(C#CC(C)(O)C3CC3)ncc21 (single isomer, unassigned)
c. [2H]c1n[nH]c([2H])c1-c1cn(C2CCN(C)CC2)c2c(C)nc(C#CC(O)(C([2H])([2H])[2H])C([2H])([2H])[2H])cc12
d. CC(C)(O)C#Cc1cc2c(-c3cn[nH]c3)cn(S(=O)(=O)Cc3ccccc3)c2cn1
e. CCCC(C)n1cc(-c2cn[nH]c2)c2cc(C#CC(C)(C)O)ncc21 (centres unmarked)
Query: Please put the entries in order of rising IC50. Put the labels in the requested order and write them down.
Reply: b, a, e, c, d
(b: 14 nM, a: 25 nM, e: 43 nM, c: 84 nM, d: 290 nM)

P. CC(C)n1cc(-c2cn[nH]c2)c2cc(C#CC(C)(C)O)ncc21
Q. [2H]c1n[nH]c([2H])c1-c1cn([C@H]2CCN(CCC(F)(F)F)C2)c2cnc(C#CC(O)(C([2H])([2H])[2H])C([2H])([2H])[2H])cc12
Query: // which entry reports the smaller IC50, P or Q ? Your answer should be the label attached to the chosen record.
Reply: P
(P: 21 nM, Q: 63 nM)
